tested_on: IFN-αH2 (human, UniProt P01570 24-189)
assay_comment: cell-based or functional assay
measure: IC50, ISRE assay (nM)
Only the number, expressed in nM, is required.

Item IFWM3416 (antibody, IgG1, V domains shown, mAb; IgG1/kappa said of the parent and of selected mAbs; also called IFWB3151) VH: EVQLVQSGAEVKKPGESLKISCKGSGYSFTSYWIGWVRQMPGKGLEWMGIIDPSDSDTRYSPSFQGQVTISADKSISTAYLQWSSLKASDTAMYYCARHPGLAWAPDFDYWGQGTLVTVSS VL: DIQMTQSPSSLSASVGDRVTITCRASQSIRNTNLNWYQQKPGKAPKLLIHWASSLQSGVPSRFSGSGSGTDFTLTISSLQPEDFATYYCQQGYDTPFTFGQGTKVEIK has what recorded IC50, ISRE assay?
0.035

From: patent US20150368338A1
